MEASURED_ON: human acetylcholinesterase (Homo sapiens, UniProt P22303)
Construct: human erythrocyte membranes as a AChE source; from tissue; host or cells: human erythrocyte membranes
Sequence (P22303 32-617 isoform P22303-2 limits assumed): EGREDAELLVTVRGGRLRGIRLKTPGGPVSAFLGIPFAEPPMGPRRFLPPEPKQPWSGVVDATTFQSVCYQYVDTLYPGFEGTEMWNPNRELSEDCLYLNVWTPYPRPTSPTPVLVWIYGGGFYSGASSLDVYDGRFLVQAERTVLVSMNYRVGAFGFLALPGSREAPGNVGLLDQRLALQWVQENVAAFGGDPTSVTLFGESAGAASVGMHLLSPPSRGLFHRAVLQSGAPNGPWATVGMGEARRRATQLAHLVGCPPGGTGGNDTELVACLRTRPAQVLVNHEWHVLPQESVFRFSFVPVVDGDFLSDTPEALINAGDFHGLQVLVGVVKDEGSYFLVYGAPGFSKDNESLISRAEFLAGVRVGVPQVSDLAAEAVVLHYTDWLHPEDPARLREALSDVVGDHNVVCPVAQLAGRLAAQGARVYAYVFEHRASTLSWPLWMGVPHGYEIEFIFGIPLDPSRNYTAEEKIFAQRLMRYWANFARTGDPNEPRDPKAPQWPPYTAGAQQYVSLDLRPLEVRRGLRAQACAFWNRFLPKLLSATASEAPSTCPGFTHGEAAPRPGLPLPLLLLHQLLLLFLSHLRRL
EXPERIMENT_NOTES: biochemical
Format: biochemical
MEASUREMENT_TYPE: IC50 (nM)
Numeric only. Scale: nM

Ask: Name the reported IC50 value associated with the compound COC(=O)c1cc2c(OC(=O)N(C)C)cccc2[n+](C)c1 [Compound 67E]
Reply: 110

###

MEASURED_ON: human acetylcholinesterase (Homo sapiens, UniProt P22303)
Construct: human erythrocyte membranes as a AChE source; from tissue; host or cells: human erythrocyte membranes
EXPERIMENT_NOTES: biochemical
Type: biochemical
RUN_CONDITIONS: human erythrocyte membranes, acetylthiocholine iodide, pH 7.4, 10 min, room temperature; read-out: Inhibition of human acetylcholinesterase (apparent IC50)
For each entry below, report its IC50 value.
Numeric only. Scale: nM

Ask: Name the reported IC50 value associated with the compound CNC(=O)c1cc2c(OC(=O)N(C)C)cccc2[n+](C)c1 [Compound 68D]
Reply: 29

Ask: Name the reported IC50 value associated with the compound `CCOC(=O)c1cc2ccc(OC(=O)N(C)C)cc2[n+](C)c1`
Reply: 500

Ask: Name the reported IC50 value associated with the compound `COC(=O)c1cc2cccc(OC(=O)N(C)C)c2[n+](C)c1`
Reply: 1400

###

For each entry below, report its IC50 value.
MEASURED_ON: human acetylcholinesterase (Homo sapiens, UniProt P22303)
Construct: human erythrocyte membranes as a AChE source; from tissue; host or cells: human erythrocyte membranes
EXPERIMENT_NOTES: biochemical
Assay type: biochemical
RUN_CONDITIONS: human erythrocyte membranes, acetylthiocholine iodide, pH 7.4, 10 min, room temperature; read-out: Inhibition of human acetylcholinesterase (apparent IC50)

Ask: Name the reported IC50 value associated with the compound CCOC(=O)c1cc2c(OC(=O)N(C)C)cccc2[n+](C)c1 [Compound 2E]
Reply: 7 nM

Ask: Name the reported IC50 value associated with the compound CCNC(=O)Oc1cccc2c1cc(C(=O)OC)c[n+]2C [Compound 76B]
Reply: 6000 nM

Ask: Name the reported IC50 value associated with the compound CN(C)C(=O)Oc1ccc2cc[n+](C)cc2c1 [Example 72]
Reply: 5000 nM

Ask: Name the reported IC50 value associated with the compound CN(C)C(=O)Oc1cccc2c1cc(C(=O)N1CCOCC1)c[n+]2C [Compound 70D]
Reply: 860 nM

Ask: Name the reported IC50 value associated with the compound CN(C)C(=O)Oc1cccc2c1cc(C(=O)N(C)C)c[n+]2C [Compound 69D]
Reply: 15 nM

Ask: Name the reported IC50 value associated with the compound CCCNC(=O)c1cc2ccc(OC(=O)N(C)C)cc2[n+](C)c1 [Compound 78C]
Reply: 50000 nM

Ask: Name the reported IC50 value associated with the compound CN(C)C(=O)Oc1cccc2c[n+](C)ccc12 [Example 71]
Reply: 50 nM

Ask: Name the reported IC50 value associated with the compound CCOC(=O)c1cc2cccc(OC(=O)N(C)C)c2[n+](C)c1 [Example 77]
Reply: 8000 nM

Ask: Name the reported IC50 value associated with the compound CN(C)C(=S)Oc1cccc2c[n+](C)ccc12 [Example 75]
Reply: > 10000 nM

Ask: Name the reported IC50 value associated with the compound CCOC(=O)c1ccc[n+](Cc2ccc(OC(=O)N(C)C)cc2)c1 [Example 80]
Reply: 227 nM
